Target: T1, recombinant human GPC3 protein (human, UniProt P51654 25-563)
T1 construct: also called human GPC3 full-length protein; recombinant GPC3 protein
Experiment: BLI (Octet), antibody on Protein A probe
Lab note: anything with koff at or over 0.002 s⁻¹ counts as Met; the rest go in Not met.

Binder | Group Label
42A1 (antibody, V domains shown, Chimeric human IgG1) VH: QVQLQQSGAELVRPGASVKLSCKALGYTFADYEIHWVKQTPVHGLEWIGAIHPGSGGTAYSQTFKGKATLTADKSSTTAYMELSSLTSEDSAVYYCTRYFSFAYWGQGTLVTVSA VL: DVVVTQTPLSLPVSLGDQASISCRSSQSLVHSNGNTYLHWYLQKPGQSPKLLIYKVSNRFSGVPDRFSGSGSGTDFTLKISRVEAEDLGVYFCSQSTHAPYTFGGGTRLEIK | Met
41H1 (antibody, V domains shown, Chimeric human IgG1) VH: QVQLQQSGAELVRPGASVKLSCKALGYTFADYEIHWVKQTPVHGLEWIGAIHPGSGGTAYNQTFEGKATLTADKSSTTAYMELSSLTSEDSAVYYCTRYYSFAYWGQGTLVTVSA VL: DVVMTQTPLSLPVSLGDQASISCRSSQSLVHSNGNTYLHWYLQKPGQSPKLLIYKVSNRFSGVPDRFSGSGSGTDFTLRISRVEAEDLGVYFCSQSTRVPLTFGAGTKLELK | Met
38D2 (antibody, V domains shown, Chimeric human IgG1) VH: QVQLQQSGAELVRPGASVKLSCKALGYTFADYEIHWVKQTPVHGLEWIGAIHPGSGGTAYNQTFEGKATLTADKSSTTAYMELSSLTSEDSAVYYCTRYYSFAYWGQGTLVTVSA VL: DVVMTQTPLSLPVSLGDQASISCRSSQSLENSNGNTYLNWYLQKPGQSPQLLIYRVSNRFSGVLDRFSGSGSGTDFTLKISRVEAEDLGVYFCLQVTHVPYTFGGGTKLEIK | Not met
34H1 (antibody, V domains shown, Chimeric human IgG1) VH: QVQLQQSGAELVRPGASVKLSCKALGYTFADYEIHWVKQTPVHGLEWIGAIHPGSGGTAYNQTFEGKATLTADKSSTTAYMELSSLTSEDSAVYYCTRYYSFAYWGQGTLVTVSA VL: DVVMTQTPLSLPVSLGDQASISCRSSQSLVHSNGNTYLHWYLQKPGQSPKLLIYKVSNRFSGVPDRFSGSGSGTDFTLKISRVEAEDLGVYFCSQSIHVPLTFGAGTKLELK | Met
41F1 (antibody, V domains shown, Chimeric human IgG1) VH: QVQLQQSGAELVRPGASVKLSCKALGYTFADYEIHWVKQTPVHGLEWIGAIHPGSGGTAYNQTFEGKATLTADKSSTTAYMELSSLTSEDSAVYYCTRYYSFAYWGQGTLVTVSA VL: DVLMTQTPLSLPVSLGDQASISCRSSQSLVHSNGNTYLHWYLQKPGQSPKLLIYKVSNRFSGVPDRFSGSGSGTDFTLKISRVEAEDLGVYFCSQNTHVPLTFGAGTKLELK | Not met
28G4 (antibody, V domains shown, Chimeric human IgG1) VH: EVQLQQSGAELVRPGASVKLSCKALGYTFADYEIHWVKQTPVHGLEWIGAIHPGSGGTAYNQTFKGKATLTADKSSTTAYMELSSLTSEDSAVYYCTRYYSFAYWGQGTLVTVSA VL: DVLMTQTPLSLPVSLGDQASISCRSSQSIVHSNGNTYLQWYLQKPGQSPKLLIYKVSNRFSGVPDRFSGSGSGTDFTLKISRVEAEDLGVYYCFQGSHVPYTFGGGTKLEIK | Not met
29A10 (antibody, V domains shown, Chimeric human IgG1) VH: EVQLQQSGAELVRPGASVKLSCKALGYTFADYEIHWVKQTPVHGLEWIGAIHPGSGGTAYNQTFKGKATLTADKSSTTAYMELSSLTSEDSAVYYCTRYYSFAYWGQGTLVTVSA VL: DVVMTQTPLSLPVSLGDQASISCRSSQSLVHSNGNTYLHWYLQKPGQSPKLLIYKVSNRFSGVPDRFSGSGSGTDFTLKISRVEAEDLGVYFCSQSTHVPLTFGAGTKLEIK | Met

Data credit: patent US20240043568A1
